- Tested on: Venturia inaequalis
- protocol description: Venturia Test (apple)/protective
- Format: in vivo
- condition notes: 240 h, apple plants, protective spray, evaluation 10 days after inoculation, 100% = no infection, read-out: Efficacy in %
metric name: pest or weed control at 100 g/ha (%)
The reply should contain only the number, in %.

Recorded pest or weed control at 100 g/ha, per entry:
compound | measured target | unit of measure | pest or weed control at 100 g/ha
Fc1cccc(Cl)c1-c1c(Cl)nc2ncnn2c1N1NC2CCC1C2 (centres unmarked) [drawing 66] | Venturia inaequalis | % | 100
Fc1cc(F)c(-c2c(Cl)nc3ncnn3c2N2Cc3ccccc3CO2)c(F)c1 [drawing 45] | Venturia inaequalis | % | 100

Which value of pest or weed control at 100 g/ha has been reported for CC1C=CCN(c2c(-c3c(F)cc(F)cc3F)c(Cl)nc3ncnn23)O1 (centres unmarked) [drawing 50] in the records?
100

Which value of pest or weed control at 100 g/ha has been reported for Fc1cc(F)c(-c2c(Cl)nc3ncnn3c2N2CCCCN2)c(C(F)(F)F)c1 [drawing 68] in the records?
100

----------
- protocol description: physchem
metric name: chromatographic logP

Recorded chromatographic logP, per entry:
compound | chromatographic logP
Fc1cc(F)c(-c2c(Br)nc3ncnn3c2N2CCCCN2)c(F)c1 | 2.73
Clc1ccccc1-c1c(Cl)nc2ncnn2c1N1OC2CCC1C2 (stereo not shown) | 2.69
Fc1ccc(-c2c(Cl)nc3ncnn3c2N2CCCCO2)c(F)c1 | 2.84

Below: the item to evaluate.
Which value of chromatographic logP has been reported for Fc1cccc(F)c1-c1c(Cl)nc2ncnn2c1N1CCCCO1 in the records?
2.68

----------
// reported pest or weed control at 500 g/ha per item
- Test system: Botrytis cinerea
- protocol description: Botrytis Test (bean)/protective
- Assay type: in vivo
- condition notes: 48 h, bean plants, protective spray, evaluation 2 days after inoculation, 100% = no infection, read-out: Efficacy in %
The reply should contain only the number, in %.

Recorded pest or weed control at 500 g/ha, per entry:
compound | unit of measure | pest or weed control at 500 g/ha
Clc1ccccc1-c1c(Cl)nc2ncnn2c1N1OC2CCC1C2 (centres unmarked) [drawing 84] | % | 93
Clc1cccc(Cl)c1-c1c(Cl)nc2ncnn2c1N1CCCCN1 [drawing 92] | % | 99
CC1CCON1c1c(-c2c(F)cc(F)cc2F)c(Cl)nc2ncnn12 (centres unmarked) [drawing 83] | % | 100
Fc1cc(F)c(-c2c(Cl)nc3ncnn3c2N2CCCCO2)c(F)c1 [drawing 73] | % | 100

Below: the item to evaluate.
Which value of pest or weed control at 500 g/ha has been reported for CC1C=CCN(c2c(-c3c(F)cc(F)cc3F)c(Cl)nc3ncnn23)O1 (centres unmarked) [drawing 80] in the records?
93

----------
// reported pest or weed control at 500 g/ha per item
- System: Botrytis cinerea
- protocol description: Botrytis Test (bean)/protective
- Format: in vivo
- condition notes: 48 h, bean plants, protective spray, evaluation 2 days after inoculation, 100% = no infection, read-out: Efficacy in %
Please report the result as a number followed by the unit.

molecule | result value
Fc1ccc(-c2c(Cl)nc3ncnn3c2N2OC3CCC2C3)c(Cl)c1 (stereo not shown) [drawing 90] | 100%
Fc1cc(F)c(-c2c(Cl)nc3ncnn3c2N2Cc3ccccc3CO2)c(F)c1 [drawing 72] | 100%
Fc1cc(F)c(-c2c(Cl)nc3ncnn3c2N2CCC=N2)c(F)c1 [drawing 91] | 100%
Fc1cccc(Cl)c1-c1c(Cl)nc2ncnn2c1N1CCCCN1 [drawing 76] | 100%
Fc1cccc(F)c1-c1c(Cl)nc2ncnn2c1N1CCCCN1 [drawing 95] | 95%

Which value of pest or weed control at 500 g/ha has been reported for CC1CCCON1c1c(-c2ccccc2Cl)c(Cl)nc2ncnn12 (stereo not shown) [drawing 89] in the records?
99%

Which value of pest or weed control at 500 g/ha has been reported for Fc1cccc(F)c1-c1c(Cl)nc2ncnn2c1N1CCCCO1 [drawing 85] in the records?
100%

----------
// reported chromatographic logP per item
- protocol description: physchem
Answer as a number with no unit attached.

compound | result value
Fc1cc(F)c(-c2c(Cl)nc3ncnn3c2N2NC3CCC2C3)c(F)c1 (stereo not shown) | 2.65
CCOC(=O)N1OCCC1C (stereo not shown) | 1.22

Which value of chromatographic logP has been reported for CC1C=CCN(c2c(-c3c(F)cc(F)cc3F)c(Cl)nc3ncnn23)O1 (stereo not shown) in the records?
3.12

Which value of chromatographic logP has been reported for Fc1cccc(Cl)c1-c1c(Cl)nc2ncnn2c1N1CCCCN1 in the records?
2.67

Which value of chromatographic logP has been reported for Clc1cccc(Cl)c1-c1c(Cl)nc2ncnn2c1N1CCCCN1 in the records?
2.88

Which value of chromatographic logP has been reported for Clc1ccc(-c2c(Cl)nc3ncnn3c2N2CCCCN2)c(Cl)c1 in the records?
3.22

Which value of chromatographic logP has been reported for Fc1cc(F)c(-c2c(Cl)nc3ncnn3c2N2CCCCN2)c(F)c1 in the records?
2.68

Which value of chromatographic logP has been reported for Fc1cc(F)c(-c2c(Cl)nc3ncnn3c2N2CCC=N2)c(F)c1 in the records?
2.34

Which value of chromatographic logP has been reported for CC1CCCON1c1c(-c2c(F)cc(F)cc2F)c(Cl)nc2ncnn12 (stereo not shown) in the records?
3.23

----------
- protocol description: physchem
// reported chromatographic logP per item
Answer as a number with no unit attached.

molecule | chromatographic logP
Fc1cccc(F)c1-c1c(Cl)nc2ncnn2c1N1CCCCN1 | 2.47
CC1CCON1c1c(-c2c(F)cccc2Cl)c(Cl)nc2ncnn12 (centres unmarked) | 2.74
Fc1cc(F)c(-c2c(Cl)nc3ncnn3c2N2CCCCO2)c(F)c1 | 2.92

Which value of chromatographic logP has been reported for Fc1cc(F)c(-c2c(Cl)nc3ncnn3c2N2CCCCN2)c(C(F)(F)F)c1 in the records?
3.06

Which value of chromatographic logP has been reported for Fc1cc(C(F)(F)F)cc(F)c1-c1c(Cl)nc2ncnn2c1N1CCCCN1 in the records?
3.26

----------
- System: Botrytis cinerea
- protocol description: Botrytis Test (bean)/protective
- Assay type: in vivo
- condition notes: 48 h, bean plants, protective spray, evaluation 2 days after inoculation, 100% = no infection, read-out: Efficacy in %
// reported pest or weed control at 500 g/ha per item
The reply should contain only the number, in %.

Recorded pest or weed control at 500 g/ha, per entry:
compound | measured target | pest or weed control at 500 g/ha / %
Fc1ccc(-c2c(Cl)nc3ncnn3c2N2CCCCO2)c(Cl)c1 [drawing 74] | Botrytis cinerea | 100
Fc1cc(F)c(-c2c(Cl)nc3ncnn3c2N2NC3CCC2C3)c(F)c1 (stereo not shown) [drawing 93] | Botrytis cinerea | 96

Which value of pest or weed control at 500 g/ha has been reported for Fc1cc(F)c(-c2c(Cl)nc3ncnn3c2N2CCCCN2)c(C(F)(F)F)c1 [drawing 96] in the records?
100

Which value of pest or weed control at 500 g/ha has been reported for Fc1cc(C(F)(F)F)cc(F)c1-c1c(Cl)nc2ncnn2c1N1CCCCN1 [drawing 98] in the records?
95

----------
- System: Venturia inaequalis
- protocol description: Venturia Test (apple)/protective
- Format: in vivo
- condition notes: 240 h, apple plants, protective spray, evaluation 10 days after inoculation, 100% = no infection, read-out: Efficacy in %
metric name: pest or weed control at 100 g/ha (%)
The reply should contain only the number, in %.

compound | metric name | unit of measure | result value
Clc1ccc(-c2c(Cl)nc3ncnn3c2N2CCCCN2)c(Cl)c1 [drawing 69] | pest or weed control at 100 g/ha | % | 95
Fc1cccc(F)c1-c1c(Cl)nc2ncnn2c1N1CCCCN1 [drawing 67] | pest or weed control at 100 g/ha | % | 96
Fc1ccc(-c2c(Cl)nc3ncnn3c2N2OC3CCC2C3)c(F)c1 (stereo not shown) [drawing 60] | pest or weed control at 100 g/ha | % | 100

Form field: pest or weed control at 100 g/ha recorded for Clc1ccccc1-c1c(Cl)nc2ncnn2c1N1OC2CCC1C2 (stereo not shown) [drawing 56] with Venturia inaequalis (enter value)
99

Form field: pest or weed control at 100 g/ha recorded for Fc1cc(F)c(-c2c(Cl)nc3ncnn3c2N2CCCCO2)c(F)c1 [drawing 46] with Venturia inaequalis (enter value)
100

Form field: pest or weed control at 100 g/ha recorded for Fc1cc(F)c(-c2c(Cl)nc3ncnn3c2N2CCC=N2)c(F)c1 [drawing 63] with Venturia inaequalis (enter value)
96

----------
- Test system: Botrytis cinerea
- protocol description: Botrytis Test (bean)/protective
- Assay type: in vivo
- condition notes: 48 h, bean plants, protective spray, evaluation 2 days after inoculation, 100% = no infection, read-out: Efficacy in %
- Procedure: Botrytis Test (bean)/protective Solvents: 24.5 parts by weight of acetone • 24.5 parts by of dimethylacetamide Emulsifier: 1.0 part by weight of alkylaryl polyglycol ether To produce a suitable preparation of active compound, 1 part by weight of active compound is mixed with the stated amounts of solvent and emulsifier, and the concentrate is diluted with water to the desired concentration. […] 2 days after the inoculation the size of the infected areas on the leaves is evaluated. […]
metric name: pest or weed control at 500 g/ha (%)
The reply should contain only the number, in %.

Recorded pest or weed control at 500 g/ha, per entry:
compound | measured target | unit of measure | pest or weed control at 500 g/ha
Fc1ccc(-c2c(Cl)nc3ncnn3c2N2CCCCO2)c(F)c1 [drawing 75] | Botrytis cinerea | % | 100
Fc1cccc(Cl)c1-c1c(Cl)nc2ncnn2c1N1OC2CCC1C2 (stereo not drawn) [drawing 86] | Botrytis cinerea | % | 100
Fc1cc(F)c(-c2c(Br)nc3ncnn3c2N2CCCCN2)c(F)c1 [drawing 99] | Botrytis cinerea | % | 100
Fc1cc(F)c(-c2c(Cl)nc3ncnn3c2N2CC=CCO2)c(F)c1 | Botrytis cinerea | % | 100

Which value of pest or weed control at 500 g/ha has been reported for Fc1cccc(Cl)c1-c1c(Cl)nc2ncnn2c1N1NC2CCC1C2 (stereo not drawn) [drawing 94] in the records?
100

Which value of pest or weed control at 500 g/ha has been reported for CC1CCON1c1c(-c2c(F)cccc2Cl)c(Cl)nc2ncnn12 (stereo not drawn) [drawing 87] in the records?
100

Which value of pest or weed control at 500 g/ha has been reported for Fc1cc(F)c(-c2c(Cl)nc3ncnn3c2N2OC3CCC2C3)c(C(F)(F)F)c1 (stereo not drawn) [drawing 78] in the records?
100

Which value of pest or weed control at 500 g/ha has been reported for Fc1cc(F)c(-c2c(Cl)nc3ncnn3c2N2OC3CCC2C3)c(F)c1 (stereo not drawn) [drawing 81] in the records?
98

Which value of pest or weed control at 500 g/ha has been reported for Fc1ccc(-c2c(Cl)nc3ncnn3c2N2OC3CCC2C3)c(F)c1 (stereo not drawn) [drawing 88] in the records?
99

Which value of pest or weed control at 500 g/ha has been reported for CC1CCCON1c1c(-c2c(F)cc(F)cc2F)c(Cl)nc2ncnn12 (stereo not drawn) [drawing 82] in the records?
100

Which value of pest or weed control at 500 g/ha has been reported for Clc1ccc(-c2c(Cl)nc3ncnn3c2N2CCCCN2)c(Cl)c1 [drawing 97] in the records?
95

Which value of pest or weed control at 500 g/ha has been reported for Fc1cc(F)c(-c2c(Cl)nc3ncnn3c2N2CCCCN2)c(F)c1 [drawing 77] in the records?
100
